measurement.target: Purified recombinant HuFCRN/B2MG, biotinylated (human) (UniProt P55899)
procedure.text: BLI (ForteBio Octet); biotinylated HuFCRN/B2MG on SA biosensors
quantity.name: Kd (nM)
Response body: numeric value in nM, unit text excluded.

Query string: Quick check: Kd of RITUXAN (Genentech), non-fused anti-CD20Ab (antibody) ?
Result string: 69.7
